The values you see were collected from the supplement of paper PMC9112550.

tested on: Escherichia coli TOP10; assay: shrunken log2 fold change of peptide-encoding DNA abundance (4.5 h post-induction vs induction); higher = less antimicrobial activity (less host growth inhibition); conditions: time post-induction: 4.5 h; library: site-saturation at positions 5, 18, 19, 20
shrunken log2 fold change vs -0.04: at or above is Met, below is Not met.

RRIRLRPPRLPRPRPRPWKCPRP ... Not met
RRIRFRPPRLPRPRPRPKTGPRP ... Met
RRIRDRPPRLPRPRPRPTKDPRP ... Met
RRIRTRPPRLPRPRPRPVMKPRP ... Met
RRIRRRPPRLPRPRPRPAYCPRP ... Met

**Q:** Could you verify whether the entry RRIRKRPPRLPRPRPRPLSHPRP shows shrunken log2 fold change of no less than -0.04?
**A:** Met

**Q:** Tell me whether shrunken log2 fold change is at least -0.04 here: RRIRDRPPRLPRPRPRPWDWPRP
**A:** Met

**Q:** Entry RRIRFRPPRLPRPRPRPSTFPRP : is its shrunken log2 fold change no less than -0.04?
**A:** Not met

**Q:** Please indicate if the recorded shrunken log2 fold change for RRIRTRPPRLPRPRPRPKEDPRP meets or exceeds -0.04.
**A:** Met

**Q:** Is the recorded value of shrunken log2 fold change equal to or greater than -0.04 for this sequence? RRIRKRPPRLPRPRPRPNPIPRP
**A:** Met

**Q:** Textbook exercise: given the entry RRIRQRPPRLPRPRPRPYYSPRP , state whether its shrunken log2 fold change is greater than or equal to -0.04.
**A:** Not met

**Q:** Given RRIRARPPRLPRPRPRPGVEPRP , state whether its shrunken log2 fold change is at least -0.04.
**A:** Met

**Q:** Form field: shrunken log2 fold change at least -0.04? Entry: RRIRCRPPRLPRPRPRPEHGPRP
**A:** Met

**Q:** Does RRIRVRPPRLPRPRPRPKVLPRP have a reported shrunken log2 fold change of at least -0.04?
**A:** Not met

**Q:** Say whether RRIRVRPPRLPRPRPRPMFWPRP shows shrunken log2 fold change of -0.04 or more.
**A:** Met

**Q:** Check if shrunken log2 fold change >= -0.04 (inclusive). Item: RRIRDRPPRLPRPRPRPCPWPRP
**A:** Met

**Q:** shrunken log2 fold change >= -0.04 for RRIRYRPPRLPRPRPRPTAGPRP ?
**A:** Met

**Q:** Say whether RRIRSRPPRLPRPRPRPECPPRP shows shrunken log2 fold change of -0.04 or more.
**A:** Not met

**Q:** Could you please find out whether RRIRTRPPRLPRPRPRPIPNPRP has shrunken log2 fold change that meets -0.04 or exceeds it?
**A:** Met

**Q:** Tell me whether shrunken log2 fold change is at least -0.04 here: RRIRRRPPRLPRPRPRPTKGPRP
**A:** Met

====

test system: Escherichia coli TOP10; test: shrunken log2 fold change of peptide-encoding DNA abundance (4.5 h post-induction vs induction); higher = less antimicrobial activity (less host growth inhibition); conditions: time post-induction: 4.5 h; library: site-saturation at positions 5, 18, 19, 20
Please respond with reported shrunken log2 fold change for every item in the list.

RRIRFRPPRLPRPRPRPHIKPRP ... -0.793

Dear colleague, could you send me shrunken log2 fold change for each of the items below? Thanks.
1. RRIRHRPPRLPRPRPRPLSHPRP
2. RRIRERPPRLPRPRPRPGRWPRP
3. RRIRNRPPRLPRPRPRPPSLPRP
4. RRIRMRPPRLPRPRPRPQKDPRP
5. RRIRPRPPRLPRPRPRPQVAPRP
6. RRIRMRPPRLPRPRPRPPYYPRP
7. RRIRVRPPRLPRPRPRPIKGPRP
8. RRIRTRPPRLPRPRPRPKVAPRP

**A:**
-0.00358
0.796
-0.0145
0.0308
-0.0363
-0.243
-0.155
0.0317

Batch request: shrunken log2 fold change for each of the following sequences.
1. RRIRARPPRLPRPRPRPPAFPRP
2. RRIRHRPPRLPRPRPRPVHCPRP
3. RRIRARPPRLPRPRPRPEELPRP

**A:**
1: 1.04; 2: -0.159; 3: 0.499

Can you give me shrunken log2 fold change for all of these, one by one?
1. RRIRHRPPRLPRPRPRPQEHPRP
2. RRIRFRPPRLPRPRPRPIWRPRP
3. RRIRPRPPRLPRPRPRPEAEPRP
4. RRIRYRPPRLPRPRPRPLCVPRP
5. RRIRTRPPRLPRPRPRPQCHPRP
6. RRIRERPPRLPRPRPRPRSYPRP
7. RRIRHRPPRLPRPRPRPGNYPRP

**A:**
[-0.389, 0.248, 0.979, -0.722, -0.0436, -0.0497, 0.113]

====

tested on: Escherichia coli TOP10; assay: shrunken log2 fold change of peptide-encoding DNA abundance (4.5 h post-induction vs induction); higher = less antimicrobial activity (less host growth inhibition); settings: time post-induction: 4.5 h; library: site-saturation at positions 5, 18, 19, 20
I'd be grateful if you could share measured shrunken log2 fold change for these entries.
Give bare numbers.

Example entries and their recorded answers appear below.
RRIRRRPPRLPRPRPRPPKTPRP ... 0.108
RRIRSRPPRLPRPRPRPICKPRP ... -0.494
RRIRWRPPRLPRPRPRPYYAPRP ... -0.195
RRIRDRPPRLPRPRPRPVNLPRP ... 0.0119
RRIRRRPPRLPRPRPRPKYYPRP ... -0.199
RRIRMRPPRLPRPRPRPSEDPRP ... 0.974
RRIRCRPPRLPRPRPRPNKCPRP ... -0.279
RRIRLRPPRLPRPRPRPSVYPRP ... -0.584

Respectfully, I request shrunken log2 fold change for each entry included below.
1. RRIRDRPPRLPRPRPRPQTKPRP
2. RRIRRRPPRLPRPRPRPDSPPRP
3. RRIRSRPPRLPRPRPRPAKMPRP

**A:**
[-0.115, 0.28, -0.0464]

Provide reported shrunken log2 fold change for each item, in the same order as listed.
1. RRIRVRPPRLPRPRPRPLRAPRP
2. RRIRKRPPRLPRPRPRPNIVPRP
3. RRIRGRPPRLPRPRPRPNYSPRP
4. RRIRLRPPRLPRPRPRPRKVPRP
5. RRIRPRPPRLPRPRPRPNVHPRP
6. RRIRLRPPRLPRPRPRPHMRPRP

**A:**
1: 0.719; 2: 0.135; 3: -0.371; 4: 0.0909; 5: -0.44; 6: 0.125

====

test system: Escherichia coli TOP10; experiment: shrunken log2 fold change of peptide-encoding DNA abundance (4.5 h post-induction vs induction); higher = less antimicrobial activity (less host growth inhibition); conditions: time post-induction: 4.5 h; library: site-saturation at positions 5, 18, 19, 20
# cutoff -0.09 applies to shrunken log2 fold change; >= gives label 1, < gives label 0

Reference set (3 entries):
RRIRSRPPRLPRPRPRPAEPPRP ... label 0
RRIRGRPPRLPRPRPRPRGWPRP ... label 1
RRIRSRPPRLPRPRPRPEISPRP ... label 0

Now turn to the next sequence.
**Q:** Could you tell me if the measured shrunken log2 fold change of RRIRWRPPRLPRPRPRPSRVPRP reaches -0.09 or more?
**A:** label 1

====

test system: Escherichia coli TOP10; test: shrunken log2 fold change of peptide-encoding DNA abundance (4.5 h post-induction vs induction); higher = less antimicrobial activity (less host growth inhibition); settings: time post-induction: 4.5 h; library: site-saturation at positions 5, 18, 19, 20;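 further: peptides expressed intracellularly from a pBAD plasmid library in pooled LB shake-flask culture, induced with 0.3% L-arabinose, DNA abundance read by NGS, three biological replicates, DESeq2 with apeglm shrinkage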
Please respond with reported shrunken log2 fold change for every item in the list.
Give bare numbers.

RRIRVRPPRLPRPRPRPACVPRP ... -0.0412

# batch: return shrunken log2 fold change for each of the 5 sequences below
1. RRIRSRPPRLPRPRPRPENTPRP
2. RRIRYRPPRLPRPRPRPAYLPRP
3. RRIRSRPPRLPRPRPRPDHYPRP
4. RRIRERPPRLPRPRPRPIPYPRP
5. RRIRERPPRLPRPRPRPEPWPRP

**A:**
-0.258
-0.244
-0.341
-0.00829
0.0721

Hi, could you look up shrunken log2 fold change for each item in my list?
1. RRIRKRPPRLPRPRPRPKFWPRP
2. RRIRWRPPRLPRPRPRPLEEPRP
3. RRIRLRPPRLPRPRPRPDAIPRP
4. RRIRVRPPRLPRPRPRPVRKPRP
5. RRIRMRPPRLPRPRPRPTYMPRP

**A:**
0.798
1.06
0.0952
0.274
-0.131

**Q:** Supply measured shrunken log2 fold change of RRIRMRPPRLPRPRPRPAGEPRP in your reply.
**A:** 1.87
